Overview of recorded GI50 for various molecules
system: NCI-H522; assay: NCI tumour cell line growth inhibition, 48 h
The source made the active and inactive calls. No stated cut-off is given here; in the data, active = GI50 up to about 1.1 µM and inactive = higher.

Here is how some molecules turned out for GI50.
| molecule | quantity | result |
| --- | --- | --- |
| c1ccc2cc3[s+]snc3cc2c1 | GI50 | > 100 µM (inactive) |
| O=C(OCc1c(-c2ccccc2)nn(-c2ccccc2)c1COC(=O)Oc1ccccc1)Oc1ccccc1 | GI50 | > 100 µM (inactive) |

Now look at this one.
Form: Entry = Cc1ccc(C(=O)NC2C(=O)NC(C(C)C)C(=O)N3CCCC3C(=O)N(C)CC(=O)N(C)C(C(C)C)C(=O)OC2C)c2c1Oc1c(c(C(=O)NC3C(=O)NC(C(C)C)C(=O)N4CCCC4C(=O)N(C)CC(=O)N(C)C(C(C)C)C(=O)OC3C)c3nc(-c4ccccc4)c(=O)oc3c1C)N2 (stereo not drawn) | System = NCI-H522 | GI50 = ____
0.0024 µM (active)

Data origin, for the record: ChEMBL document CHEMBL1201862
